Tested on: foxtail, giant (giant foxtail, Setaria faberii)
Protocol summary: Test C greenhouse herbicide test, pre- and postemergence
Type: in vivo
Experimental parameters: Postemergence, 250 g ai/ha; scale 0 to 100, 0 no effect, 100 complete control; 13 to 15 d
Assay endpoint: Plant response rating, Foxtail, Giant

INSERT INTO assay_data (query_smiles, numeric_readout) VALUES
  ('CCC(=O)Oc1c(C)nn(C)c(=O)c1-c1c(C)sc2c(C)cc(C)cc12', 95),
  ('Cc1ccc2ccc(C)c(-c3c(O)c(C)nn(C)c3=O)c2c1', 90),
  ('CCC(=O)Oc1c(C)nn(C)c(=O)c1-c1c(C)sc2ccc(C)cc12', 80),
  ('CCC(=O)Oc1c(Cl)nn(C)c(=O)c1-c1c(C)sc2ccc(Cl)cc12', 85),
  ('CCC(=O)Oc1c(C)nn(C)c(=O)c1-c1c(C)sc2ccc(Cl)cc12', 85),
  ('COC(=O)Oc1c(C)nn(C)c(=O)c1-c1c([N+](=O)[O-])ccc2ccccc12', 40),
  ('Cc1ccc2ccccc2c1-c1c(O)cnn(C)c1=O', 50),
  ('CCOC(=O)Oc1c(C)nn(C)c(=O)c1-c1c(C)sc2c(C)cc(C)cc12', 90),
  ('Cc1ccc2ccccc2c1-c1c(O)c(C)nn(C)c1=O', 90),
  ('C#CCOC(=O)Oc1c(C)nn(C)c(=O)c1-c1c(C)sc2ccc(C)cc12', 85),
  ('CC(=O)Oc1c(C)nn(C)c(=O)c1-c1ccc(F)c2ccccc12', 75),
  ('COc1nn(C)c(=O)c(-c2c(C)ccc3ccccc23)c1OC(C)=O', 80),
  ('CC(=O)Oc1c(C#N)nn(C)c(=O)c1-c1c(C)ccc2ccccc12', 100),
  ('Cc1cc(C)c2ccccc2c1-c1c(OS(C)(=O)=O)c(C)nn(C)c1=O', 95);

----------
Test system: field poppy (Papaver rhoeas)
Protocol summary: Test D controlled growth environment herbicide test, pre- and postemergence
Format: in vivo
Experimental parameters: Postemergence, 125 g ai/ha; visual rating on scale 0 (no effect) to 100 (complete control), 14 to 21 d
Below: a set of entries, each annotated with reported Plant response rating, Field Poppy.
Assay endpoint: Plant response rating, Field Poppy

INSERT INTO results (compound, assay_endpoint, numeric_readout) VALUES
  ('Cc1ccc2ccc(C)c(-c3c(O)c(C)nn(C)c3=O)c2c1 [Compound 60]', 'Plant response rating, Field Poppy', 85),
  ('CCC(=O)Oc1c(C)nn(C)c(=O)c1-c1c(C)sc2ccc(C)cc12 [Compound 42]', 'Plant response rating, Field Poppy', 100),
  ('COc1nn(C)c(=O)c(-c2c(C)ccc3ccccc23)c1OC(=O)OC(C)C [Compound 36]', 'Plant response rating, Field Poppy', 90),
  ('Cc1ccc2sc(C)c(-c3c(O)c(C)nn(C)c3=O)c2c1 [Compound 1]', 'Plant response rating, Field Poppy', 100),
  ('COC(=O)Oc1c(C)nn(C)c(=O)c1-c1c(C)sc2c(C)cc(C)cc12 [Compound 81]', 'Plant response rating, Field Poppy', 100),
  ('Cc1nn(C)c(=O)c(-c2c(C)sc3ccc(Cl)cc23)c1O [Compound 104]', 'Plant response rating, Field Poppy', 75),
  ('Cc1cc(C)c2sc(C)c(-c3c(OC(=O)OC(C)C)c(C)nn(C)c3=O)c2c1 [Compound 67]', 'Plant response rating, Field Poppy', 100),
  ('Cc1ccc(-c2c(O)c(Br)nn(C)c2=O)c2ccccc12 [Compound 52]', 'Plant response rating, Field Poppy', 90),
  ('CCC(=O)Oc1c(C)nn(C)c(=O)c1-c1c(C)sc2ccc(Cl)cc12 [Compound 109]', 'Plant response rating, Field Poppy', 75),
  ('Cc1cc(C)c2sc(C)c(-c3c(OC(=O)OCCCl)c(C)nn(C)c3=O)c2c1 [Compound 85]', 'Plant response rating, Field Poppy', 80),
  ('Cc1ccc2ccccc2c1-c1c(O)c(C)nn(C)c1=O [Compound 59]', 'Plant response rating, Field Poppy', 95),
  ('CCOC(=O)Oc1c(C)nn(C)c(=O)c1-c1c(C)sc2c(C)cc(C)cc12 [Compound 83]', 'Plant response rating, Field Poppy', 100),
  ('CC(=O)Oc1c(C)nn(C)c(=O)c1-c1c(C)sc2ccc(C)cc12 [Compound 25]', 'Plant response rating, Field Poppy', 100);

----------
System: barnyardgrass (Echinochloa crus-galli)
Protocol summary: Test E greenhouse herbicide test, pre- and postemergence
Assay type: in vivo
Experimental parameters: 125 g ai/ha, Postemergence; scale 0 to 100 (0 no effect, 100 complete control)
# Lookup of reported Plant response rating, Barnyardgrass keyed by entry
Assay endpoint: Plant response rating, Barnyardgrass

INSERT INTO measurements (compound, assay_endpoint, numeric_readout) VALUES
  ('CCC(=O)Oc1c(C)nn(C)c(=O)c1-c1c(C)sc2c(C)cc(C)cc12 [Compound 28]', 'Plant response rating, Barnyardgrass', 50),
  ('CSCC(=O)Oc1c(C)nn(C)c(=O)c1-c1cccc2ccccc12 [Compound 171]', 'Plant response rating, Barnyardgrass', 50),
  ('CC(=O)Oc1c(C)nn(C)c(=O)c1-c1ccc(F)c2ccccc12 [Compound 90]', 'Plant response rating, Barnyardgrass', 50),
  ('CC(=O)Oc1c(C)nn(C)c(=O)c1-c1c(C)sc2ccc(C)cc12 [Compound 25]', 'Plant response rating, Barnyardgrass', 50),
  ('CC(=O)Oc1c(C)nn(C)c(=O)c1-c1c(C)cc(C)c2ccccc12 [Compound 153]', 'Plant response rating, Barnyardgrass', 50);

----------
Below: a set of entries, each annotated with reported Crabgrass, Large plant response rating.
System: crabgrass, large (large crabgrass, Digitaria sanguinalis)
Protocol summary: Test C greenhouse herbicide test, pre- and postemergence
Assay type: in vivo
Experimental parameters: Preemergence, 250 g ai/ha; scale 0 to 100 (0 no effect, 100 complete control)
Assay endpoint: Crabgrass, Large plant response rating

INSERT INTO results (compound, assay_endpoint, numeric_readout) VALUES
  ('Cc1ccc2sc(C)c(-c3c(O)c(C)nn(C)c3=O)c2c1 [Compound 1]', 'Crabgrass, Large plant response rating', 100),
  ('CCOC(=O)Oc1c(C)nn(C)c(=O)c1-c1c(CC)ccc2ccccc12 [Compound 37]', 'Crabgrass, Large plant response rating', 25),
  ('Cc1sc2ccc(Cl)cc2c1-c1c(OS(C)(=O)=O)c(Cl)nn(C)c1=O [Compound 114]', 'Crabgrass, Large plant response rating', 80),
  ('COc1nn(C)c(=O)c(-c2c(C)ccc3ccccc23)c1O [Compound 54]', 'Crabgrass, Large plant response rating', 60);

----------
Test system: barley, winter (winter barley, Hordeum vulgare)
Protocol summary: Test D controlled growth environment herbicide test, pre- and postemergence
Type: in vivo
Experimental parameters: Preemergence, 62 g ai/ha; scale 0 to 100 (0 no effect, 100 complete control)
Listed next: entries and their corresponding Plant response rating, Barley, Winter.
Assay endpoint: Plant response rating, Barley, Winter

INSERT INTO assay_data (query_smiles, assay_endpoint, numeric_readout) VALUES
  ('CC(=O)Oc1c(C)nn(C)c(=O)c1-c1c(C)sc2ccc(C)cc12', 'Plant response rating, Barley, Winter', 0),
  ('Cc1cc(C)c2sc(C)c(-c3c(OC(=O)OCCCl)c(C)nn(C)c3=O)c2c1', 'Plant response rating, Barley, Winter', 0),
  ('Cc1ccc(-c2c(O)c(Br)nn(C)c2=O)c2ccccc12', 'Plant response rating, Barley, Winter', 0),
  ('CCOC(=O)Oc1c(C)nn(C)c(=O)c1-c1c(C)sc2c(C)cc(C)cc12', 'Plant response rating, Barley, Winter', 0),
  ('CCC(=O)Oc1c(C)nn(C)c(=O)c1-c1c(C)sc2ccc(C)cc12', 'Plant response rating, Barley, Winter', 0),
  ('Cc1ccc2ccc(C)c(-c3c(O)c(C)nn(C)c3=O)c2c1', 'Plant response rating, Barley, Winter', 30);

----------
Catalogue of Speedwell plant response rating readings, one per entry.
Test system: speedwell (bird's-eye speedwell, Veronica persica)
Protocol summary: Test D controlled growth environment herbicide test, pre- and postemergence
Format: in vivo
Experimental parameters: Postemergence, 31 g ai/ha; scale 0 to 100 (0 no effect, 100 complete control)
Assay endpoint: Speedwell plant response rating

INSERT INTO results (query_smiles, assay_endpoint, numeric_readout) VALUES
  ('COC(=O)Oc1c(C)nn(C)c(=O)c1-c1c(C)sc2c(C)cc(C)cc12', 'Speedwell plant response rating', 75),
  ('Cc1cc(C)c2sc(C)c(-c3c(OC(=O)OC(C)C)c(C)nn(C)c3=O)c2c1', 'Speedwell plant response rating', 70),
  ('Cc1cc(C)c2sc(C)c(-c3c(OC(=O)OCCCl)c(C)nn(C)c3=O)c2c1', 'Speedwell plant response rating', 35),
  ('CCOC(=O)Oc1c(C)nn(C)c(=O)c1-c1c(C)sc2c(C)cc(C)cc12', 'Speedwell plant response rating', 65),
  ('CC(=O)Oc1c(C)nn(C)c(=O)c1-c1c(C)sc2c(C)cc(C)cc12', 'Speedwell plant response rating', 35),
  ('COc1nn(C)c(=O)c(-c2c(C)ccc3ccccc23)c1OC(=O)OC(C)C', 'Speedwell plant response rating', 60),
  ('Cc1ccc2sc(C)c(-c3c(O)c(C)nn(C)c3=O)c2c1', 'Speedwell plant response rating', 25),
  ('C#CCOC(=O)Oc1c(C)nn(C)c(=O)c1-c1c(C)sc2ccc(C)cc12', 'Speedwell plant response rating', 70),
  ('CC(=O)Oc1c(C)nn(C)c(=O)c1-c1c(C)sc2ccc(C)cc12', 'Speedwell plant response rating', 10),
  ('CCOC(=O)Oc1c(C)nn(C)c(=O)c1-c1c(C)sc2ccc(C)cc12', 'Speedwell plant response rating', 70);
